# SYSTEM_NAME: Epidermal growth factor receptor (Homo sapiens)
# ASSAY_OVERVIEW: EGFR binders on small-molecule microarrays, primary screen, biochemical, small-molecule microarray, 635 nm fluorescence (AID 1104);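 note: score merges 667 nm emission intensity with spot signal to noise over triplicate slides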
# EXPERIMENTAL_CONDITIONS: EGFR binding, higher = more signal
QUANTITY_MEASURED: composite z-score

[[record]]
compound = "C=CCOC(=O)[C@H]1[C@@H]2C(=O)O[C@@H](c3ccccc3)[C@@H](c3ccccc3)N2[C@@H](c2ccc(OCCOC(=O)[C@H]3C[C@H]4C(=O)N5CCC[C@H]5C(=O)N4[C@H]3c3ccc(O)cc3)cc2)[C@]12C(=O)Nc1ccc(I)cc12"
measured_result = 0.429

[[record]]
compound = "CCOC(=O)C[C@H]1[C@H](OC(=O)Cc2ccc3c(c2)OCO3)[C@@H](NC(=O)c2ccc(-c3ccccc3)cc2)c2cc(OCCCO)ccc2N1C(=O)Cc1ccc(OC)cc1"
measured_result = -0.0154

[[record]]
compound = "CC(=O)NCCCC[C@@H]1NC(=O)[C@@H]2C[C@H](C(=O)NCCCCN(C)C)[C@H](c3cccc(OCCO)c3)N2C1=O"
measured_result = -0.12

[[record]]
compound = "C=CCN(Cc1ccccc1)C(=O)C(c1cccs1)N(CCOCCO)C(=O)/C=C\\C(=O)O (stereo not drawn)"
measured_result = -2.04

[[record]]
compound = "CC(C)(C)OC(=O)CC[C@]1(C(=O)NCC(O)CO)COC(c2ccc(OCCCO)cc2)=N1 (stereo partly drawn)"
measured_result = -0.172

[[record]]
compound = "COc1ccc(C(=O)Nc2ccc(CN3C(=O)[C@@]4(O[C@@H](CCn5cc([C@H](O)c6ccccc6)nn5)[C@H]([Si](C)(C)c5ccc(OC)cc5)[C@H]4C)c4ccccc43)cc2)cc1"
measured_result = -0.591

[[record]]
compound = "COC(=O)[C@@]1(Cc2ccccc2)[C@H]2c3cc(C(=O)N4CCCC4)n(CC4CC4)c3C[C@H]2CN1C(=O)c1ccccc1"
measured_result = 0.436

[[record]]
compound = "C=C(CCCC)C(=O)CC[C@@H](OC(=O)c1cccnc1)c1ccc(CO)o1"
measured_result = 0.641

[[record]]
compound = "CC(C)(C)OC(=O)CC[C@@]12N=C(c3ccc(OCCCO)cc3)O[C@@H]1c1ccccc1N(CCS(=O)(=O)c1ccccc1)C2=O"
measured_result = 0.348

[[record]]
compound = "COCCOC(=O)N1C(=O)[C@@]2(c3cc(C#CC4=CCCCC4)ccc31)[C@H](C(=O)Nc1nc3ccccc3s1)[C@H]1C(=O)O[C@H](c3ccccc3)[C@H](c3ccccc3)N1[C@@H]2c1ccc(OCCO)cc1"
measured_result = 0.36

[[record]]
compound = "C=C(CCCC)C(=O)CC[C@H](OC(=O)c1cccnc1)c1ccccc1OCCO"
measured_result = -0.0934

[[record]]
compound = "O=C1c2ccccc2[C@@]2(Cc3ccccc3N(CC(F)(F)F)C2=O)[C@H](c2ccc(CO)cc2)N1Cc1ccccc1Cl"
measured_result = 0.509

[[record]]
compound = "CCOC(=O)[C@H]1C/C=C/C[C@H](C(=O)OCC)C(=O)O[C@H]2[C@@H](OC)O[C@H](CO)[C@@H](OC(=O)Nc3cccc(F)c3)[C@@H]2OC1=O"
measured_result = -0.226


* * *

# ASSAY_OVERVIEW: CREB reporter modulators under forskolin, primary screen, cell-based, PC12, CRE-LacZ reporter, forskolin-stimulated (AID 1146);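 note: PC12 cells with 6xCRE LacZ reporter stimulated by forskolin 10 µM; beta-galactosidase reporter signal reflecting CREB driven transcription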
# EXPERIMENTAL_CONDITIONS: luminescence, 4.5 h, higher = more signal, called active from +8 up or from −8 down
Collected z-score values appear next to each entry.
QUANTITY_MEASURED: z-score

[[record]]
compound = "CCCC[C@@H]1C[C@H]1[C@@H](NC(=O)c1ccco1)c1ccc(Cl)cc1"
measured_result = 0.473

[[record]]
compound = "O=C1O[C@@H](c2ccccc2)[C@@H](c2ccccc2)N2[C@@H](c3ccc(OCCO)cc3)[C@]3(C(=O)Nc4ccccc43)[C@@H](C(=O)NC[C@H](O)c3ccccc3)[C@H]12"
measured_result = 2.97

[[record]]
compound = "CCOC(=O)C[C@H]1[C@H](OC(=O)c2cc3ccccc3oc2=O)[C@@H](NC(=O)Cc2ccc(OC)cc2)c2cc(OCCCO)ccc2N1C(=O)c1ccccc1"
measured_result = -0.27

[[record]]
compound = "COc1cc2c(cc1O)C=[N+](Cc1cccc(OC(F)(F)F)c1)CC2"
measured_result = -0.583

[[record]]
compound = "C#CCN(Cc1ccccc1Br)C(/C=C/c1ccccc1)CO (stereo not drawn)"
measured_result = -1.04

[[record]]
compound = "CC[C@@H]1C=C(C(=O)O)[C@H](c2ccco2)N1S(=O)(=O)c1ccc(C)cc1"
measured_result = 1.1

[[record]]
compound = "CN1C(=O)C2C=CC(C(O)c3ccccc3)N(Nc3ccccc3)C2C1=O (stereo not drawn)"
measured_result = -0.206

[[record]]
compound = "COCCOC(=O)N1C(=O)[C@@]2(c3cc(C#Cc4ccc(OC)cc4)ccc31)[C@H](C(=O)N1CCCCCCC1)[C@H]1C(=O)O[C@H](c3ccccc3)[C@H](c3ccccc3)N1[C@@H]2c1ccc(OCCO)cc1"
measured_result = -0.66

